Assay Info: AP1 Signaling Pathway (AID 357);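 note: ME-180 reporter cells stimulated with EGF at its EC50 level; % is set by controls: 0 for no effect and ±100 for the full control effect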
Reported Conditions: ME-180 (cervical carcinoma) AP-1-bla reporter, EGF-induced, beta-lactamase ratio, 5 h; at 17.2 µM (top of the series) unless noted
Results filed as inconclusive are left out.
Would you mind telling me the reported activity change, negative = inhibition of each entry?
Unit % implied. Number only.

Entry `Cc1ccc(C(=O)NCC(C)(C)O)cc1` : reported activity change, negative = inhibition = ?
9.77

Next record, please: `CCN(CC)S(=O)(=O)c1cccc2c(N(C)C)cccc12`
-13.4

Please give the result for CCc1ccc(NC(=O)CSC2=C(C#N)C(c3ccco3)C3=C(CCCC3=O)N2)cc1 (centres undefined) too.
-12.8

Please do the same for CCOC(=O)c1ccc(N=CC2=C(O)CC(c3ccco3)CC2=O)cc1 (centres undefined) as well.
2.87

Next up: `COc1ccc2oc(=O)c(-c3nc(C)cs3)cc2c1`
19.7

# iterate: `Oc1ccc2ccccc2c1/C=N/n1cnnc1`
-5.14

Same question, `COc1nc(NS(=O)(=O)c2ccc(C)cc2)nc(C)c1Cl` this time
6.72

Now consider CCCCOc1ccc(C(=O)OC2CC(C)N(C)CC2C)cc1 (centres undefined) and answer again.
5.59

// query: `N#Cc1c(N)nc(SCC(=O)NCCc2ccccc2)c(C#N)c1-c1cccs1`
0.711

Quick one: `CCCc1nnc(NC(=O)Nc2ccccc2OC)s1`
0.551

Then this molecule: `Clc1ccc(-n2ncc3c(NCCCn4ccnc4)ncnc32)cc1`
-4.22

Then what about the molecule `c1ccc(-c2nnc3n2N=C(c2ccc4c(c2)OCO4)CS3)nc1` ?
2.99

Then `C=CCNc1nc(-c2ccc(O)c(C(N)=O)c2)cs1` ?
-14.5

// repeat for `CC(C)(C)C1=Nn2c(nnc2-c2ccco2)SC1` and report
2.22

Next molecule up: `CN(C=C1C(=O)CC(C)(C)CC1=O)CCN1CCNCC1`
19.5

`CC(C)CCNc1nc2c(cc1C#N)COC(C)(C)C2` , same question.
-23.1

// same read-out, input: `O=C(NCCN1CCOCC1)c1ccc(=O)oc1`
4.3

# repeat for `C=CCOc1nc2c(c(=O)n(C)c(=O)n2C)n1Cc1ccc(Cl)cc1`
-1.14

Lookup `CC1(C)Cc2c(sc3nc4n(c(=N)c23)CCC4)CO1`
-5.14

Follow-up item: `CCN(CC)c1ncc(C)c(=O)[nH]1`
16.3

Another molecule: O=C1C(=O)N(CCN2CCOCC2)C(c2ccccn2)/C1=C(/O)c1ccccc1 (centres undefined)
-4.12

# repeat for CCN(CC)CCN1C(=O)C(O)=C(C(=O)c2cc3ccccc3o2)C1c1cccnc1 (centres undefined)
4.98

Similarly, `CSc1nc2sc3c(c2c2nncn12)CCC3` ?
-7.57

Try this molecule next: CCOC(=O)c1c(N)sc2c1CCC1C(=O)N(C3CCCCC3)C(=O)C21 (centres undefined)
-12.9

Next up: O=C1CC(NCc2ccc3c(c2)OCO3)C(=O)N1Cc1ccc2c(c1)OCO2 (centres undefined)
-14.2

Please do the same for `O=C1CCCN1c1ccc(S(=O)(=O)NCc2ccco2)cc1` as well.
1.18

Likewise for c1ccc2c(c1)CCOC2CNCCCN1CCCCC1 (centres undefined) ?
-0.837

Again, but for `Cn1c(-n2c(-c3ccco3)nc3ccccc3c2=O)nc2ccccc21`
-5.43

Now consider COc1ccc(C2C(C#N)=C(C)NC3=C2C(=O)c2ccccc23)cc1 (centres undefined) .
-6.13

Record: `Cc1nc(SCC(N)=O)[nH]c(=O)c1Cc1ccc(OC(C)C)cc1`
12

Also check Cn1c2c(c(=O)n(C)c1=O)C(NC(=O)C(C)(C)C)(C(F)(F)F)C(=O)N2 (centres undefined)
-5.62

Moving on to `CCc1[nH]c(=O)c(C#N)c2c1CCCC2`
3.3

Same thing, different molecule: CN(C)CC(O)COc1cccc(OCC(O)CN(C)C)c1 (centres undefined)
1.26

Next up: `CN(C)c1cccc2c(S(=O)(=O)N3CCOCC3)cccc12`
-2.48

Proceed to `CCCCn1c(C)cc2cc(O)ccc21`
-15.1

Follow-up item: `Cc1nnc2n(-c3ccccc3)c(=O)c3c4c(sc3n12)CCCC4`
21.9

And `CSc1nc(N)nc(SCC(=O)CC(=O)OC(C)C)c1C#N` ?
-2.75

Please answer likewise for Cc1ccc(C2CC(c3cccs3)n3nc(N)nc3N2)cc1 (centres undefined)
2.57

Let us now turn to `C=CCn1cnc2c(c1=O)c1nc3ccccc3nc1n2-c1ccc(Cl)cc1`
8.09

meta.source: PubChem BioAssay (NCATS)
